# Test Description: Clearance in mouse hepatocytes assessed per million cells
# Assay type: ADME, cell-based, Hepatocyte
# Condition Notes: read-out: CLH
Measured Quantity: hepatocyte CLint (µL/min/1e6 cells)
Numbers only, in µL/min/1e6 cells.

Data request: Reported hepatocyte CLint, molecule `COc1cc(C)[nH]c(=O)c1CN1CCc2c(Cl)cc([C@H](OC)C3COC3)c(Cl)c2C1=O` : ____
Data returned: 60.1

###

# Test Description: Lipophilicity, log D of the compound at pH 7.4
# Condition Notes: buffer, pH 7.4, logD
Measured Quantity: logD
One number for each entry.

Data request: What logD value was documented for this compound, COc1cc(C)[nH]c(=O)c1CN1CCc2c(Cl)cc(C(OC)C3CCOC3)c(Cl)c2C1=O (single isomer, unassigned; (+)) ?
Data returned: 2.5

Dear reader, for each entry below, please note its logD.
1. Cc1cc(C)c(CN2CCc3c(Cl)cc([C@@H](C)CO)c(Cl)c3C2=O)c(=O)[nH]1
2. Cc1cc(C)c(CN2CCc3c(Cl)cc(C(CO)C4CCOCC4)c(Cl)c3C2=O)c(=O)[nH]1 (single isomer, unassigned; (-))
3. COc1cc(C)[nH]c(=O)c1CN1CCc2c(Cl)cc(C(OC)C3(C)COC3)c(Cl)c2C1=O (single isomer, unassigned; (+))
4. Cc1cc(C)c(CN2CCc3c(Cl)cc(C(CO)c4ccon4)c(Cl)c3C2=O)c(=O)[nH]1 (single isomer, unassigned; (+))
5. COc1cc(C)[nH]c(=O)c1CN1CCc2c(Cl)cc([C@H](OC)C3COC3)c(Cl)c2C1=O
6. COc1cc(C)[nH]c(=O)c1CN1CCc2c(Cl)cc([C@@H](O)C3COC3)c(Cl)c2C1=O
7. COC(c1cc(Cl)c2c(c1Cl)C(=O)N(Cc1c(C)cc(C)[nH]c1=O)CC2)C1CCN(C(=O)CO)CC1 (stereo in doubt; (+)-16a)

Data returned:
1: 2.5; 2: 2.3; 3: 2.3; 4: 2; 5: 1.9; 6: 1.3; 7: 2.2

// batch mode: one logD value per listed entry
1. Cc1cc(C)c(CN2CCc3c(Cl)cc([C@@H](CO)[C@H]4CCCO4)c(Cl)c3C2=O)c(=O)[nH]1
2. COC(c1cc(Cl)c2c(c1Cl)C(=O)N(Cc1c(C)cc(C)[nH]c1=O)CC2)C1CCS(=O)(=O)CC1 (stereo in doubt; (+)-18a)

Data returned:
1: 2.5; 2: 2.2

For each of the compounds below, note its logD.
1. Cc1cc(C)c(CN2CCc3c(Cl)cc([C@@H](CO)[C@@H]4CCCO4)c(Cl)c3C2=O)c(=O)[nH]1
2. COC(C)c1cc(Cl)c2c(c1Cl)C(=O)N(Cc1c(C)cc(C)[nH]c1=O)CC2 (stereo in doubt; (-)9a)
3. CCC(CO)c1cc(Cl)c2c(c1Cl)C(=O)N(Cc1c(C)cc(C)[nH]c1=O)CC2 (single isomer, unassigned; (+))
4. COc1cc(C)[nH]c(=O)c1CN1CCc2c(Cl)cc(C(OC)C3CCN(C(=O)CO)CC3)c(Cl)c2C1=O (single isomer, unassigned; (+))
5. CCC(O)c1cc(Cl)c2c(c1Cl)C(=O)N(Cc1c(C)cc(C)[nH]c1=O)CC2 (single isomer, unassigned; (+))

Data returned:
1. 2.1
2. 3.3
3. 2.8
4. 1.7
5. 3.1

###

# Test Description: Kinetic solubility of the compound
# Format: physicochemical
# Condition Notes: read-out: Kinetic_solubility
Measured Quantity: solubility kinetic (µM)
Give bare numbers, in µM.

Known solubility kinetic results, listed for orientation:
Data request: Fill in: solubility kinetic of Cc1cc(C)c(CN2CCc3c(Cl)cc(C(CO)C4CCOC4)c(Cl)c3C2=O)c(=O)[nH]1 (stereo in doubt) is ___
Data returned: 522

Data request: Field entry: `Cc1cc(C)c(CN2CCc3c(Cl)cc([C@H](C)CO)c(Cl)c3C2=O)c(=O)[nH]1`
Data returned: 131

Data request: Try this molecule too: COC(c1cc(Cl)c2c(c1Cl)C(=O)N(Cc1c(C)cc(C)[nH]c1=O)CC2)C1CCS(=O)(=O)CC1 (stereo in doubt; (+)-18a)
Data returned: 373

Turning to the following molecule.
Data request: Requested read-out: solubility kinetic. Entry: COC(c1cc(Cl)c2c(c1Cl)C(=O)N(Cc1c(C)cc(C)[nH]c1=O)CC2)C1CCN(C(=O)CO)CC1 (stereo in doubt; (+)-16a)
Data returned: 508

###

# Test System: Histone-lysine N-methyltransferase EZH2 (Homo sapiens, UniProt Q15910)
# Sequence (Q15910 whole entry): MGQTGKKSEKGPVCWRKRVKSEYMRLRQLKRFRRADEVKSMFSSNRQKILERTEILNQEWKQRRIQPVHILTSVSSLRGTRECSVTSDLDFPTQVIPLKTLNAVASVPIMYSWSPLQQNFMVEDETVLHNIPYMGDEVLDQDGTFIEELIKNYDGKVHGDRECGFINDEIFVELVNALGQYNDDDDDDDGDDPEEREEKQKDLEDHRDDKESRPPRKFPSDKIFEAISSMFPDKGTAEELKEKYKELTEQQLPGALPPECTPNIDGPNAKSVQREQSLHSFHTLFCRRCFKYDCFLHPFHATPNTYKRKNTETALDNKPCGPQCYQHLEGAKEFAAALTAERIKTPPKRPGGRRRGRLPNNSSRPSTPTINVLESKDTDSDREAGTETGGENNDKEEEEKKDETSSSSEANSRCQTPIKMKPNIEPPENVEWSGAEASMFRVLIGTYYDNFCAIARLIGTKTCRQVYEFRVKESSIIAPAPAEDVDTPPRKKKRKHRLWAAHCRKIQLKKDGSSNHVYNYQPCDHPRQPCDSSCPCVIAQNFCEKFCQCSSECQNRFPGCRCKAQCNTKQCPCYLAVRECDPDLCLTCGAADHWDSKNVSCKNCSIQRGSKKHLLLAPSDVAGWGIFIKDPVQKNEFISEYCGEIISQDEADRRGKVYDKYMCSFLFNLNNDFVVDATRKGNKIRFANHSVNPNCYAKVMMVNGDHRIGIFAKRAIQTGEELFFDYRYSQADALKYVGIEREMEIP
# Test Description: Inhibition of EZH2 in human KARPAS422 cells assessed as reduction in H3K27me3 level after 72 hrs by ELISA
Measured Quantity: IC50 (nM)
Answers are plain numbers, in nM.

Here are 6 compounds together with their reported answers.
Data request: Using the record for CCOC(c1cc(Cl)c2c(c1Cl)C(=O)N(Cc1c(C)cc(C)[nH]c1=O)CC2)C1CS(=O)(=O)C1 (single isomer, unassigned; (+)) , report its IC50.
Data returned: 62

Data request: Consider next the compound `COc1cc(C)[nH]c(=O)c1CN1CCc2c(Cl)cc([C@H](O)C3COC3)c(Cl)c2C1=O` in the same way.
Data returned: 99

Data request: And for `Cc1cc(C)c(CN2CCc3c(Cl)cc(-c4c(C)noc4C)c(Cl)c3C2=O)c(=O)[nH]1` ?
Data returned: 17

Data request: What do you have for CCC(O)c1cc(Cl)c2c(c1Cl)C(=O)N(Cc1c(C)cc(C)[nH]c1=O)CC2 (single isomer, unassigned; (+)) ?
Data returned: 1050

Data request: // repeat for COC(c1cc(Cl)c2c(c1Cl)C(=O)N(Cc1c(C)cc(C)[nH]c1=O)CC2)C1CCN(C2COC2)CC1 (single isomer, unassigned; (-)) and report
Data returned: 1310

Data request: Could you do the same for COC(c1cc(Cl)c2c(c1Cl)C(=O)N(Cc1c(C)cc(C)[nH]c1=O)CC2)C1CCOC1 (single isomer, unassigned; (-)) , please?
Data returned: 1100

***
Data request: // returns reported IC50 for input COc1cc(C)[nH]c(=O)c1CN1CCc2c(Cl)cc(C(OC)C3CCOC3)c(Cl)c2C1=O (single isomer, unassigned; form 2)
Data returned: 391

###

# Test Description: Kinetic solubility of the compound
# Assay type: physicochemical
Measured Quantity: Kinetic_solubility (µM)
Answers are plain numbers, in µM.

// known answers, use as guide
Data request: Which value of Kinetic_solubility has been reported for CCOC(c1cc(Cl)c2c(c1Cl)C(=O)N(Cc1c(C)cc(C)[nH]c1=O)CC2)C1CS(=O)(=O)C1 (single isomer, unassigned) in the records?
Data returned: 446

Data request: Continue with COc1cc(C)[nH]c(=O)c1CN1CCc2c(Cl)cc(C(OC)C3CCN(C(=O)CO)CC3)c(Cl)c2C1=O (single isomer, unassigned; (-))
Data returned: 453

Data request: Would you kindly repeat that for Cc1cc(C)c(CN2CCc3c(Cl)cc(C(CO)C4CCOCC4)c(Cl)c3C2=O)c(=O)[nH]1 (single isomer, unassigned; (-)) ?
Data returned: 540

Data request: Let us now turn to COC(c1cc(Cl)c2c(c1Cl)C(=O)N(Cc1c(C)cc(C)[nH]c1=O)CC2)C1CCS(=O)(=O)CC1 (single isomer, unassigned; (-))
Data returned: 415

Data request: What about this molecule? COC(c1cc(Cl)c2c(c1Cl)C(=O)N(Cc1c(C)cc(C)[nH]c1=O)CC2)C1CCOC1 (single isomer, unassigned; (+)-10a)
Data returned: 436

Let us examine a further case.
Data request: Sample COc1cc(C)[nH]c(=O)c1CN1CCc2c(Cl)cc(C(OC)C3CCOC3)c(Cl)c2C1=O (single isomer, unassigned; form 2) — what was its Kinetic_solubility?
Data returned: 505

###

# Test Description: Kinetic solubility of the compound
# Type: physicochemical
For each entry below, report its Kinetic_solubility value.
One number for each entry, in µM.

In the examples that follow, each entry is paired with its recorded Kinetic_solubility.
Data request: Entry under review: COc1cc(C)[nH]c(=O)c1CN1CCc2c(Cl)cc(C(OC)C3(C)COC3)c(Cl)c2C1=O (stereo in doubt; (-)-24b) . Reported Kinetic_solubility?
Data returned: 512

Data request: Now this one: COC(c1cc(Cl)c2c(c1Cl)C(=O)N(Cc1c(C)cc(C)[nH]c1=O)CC2)C1CS(=O)(=O)C1 (single isomer, unassigned)
Data returned: 159

Data request: What about this compound? Cc1cc(C)c(CN2CCc3c(Cl)cc(C(CO)c4ccon4)c(Cl)c3C2=O)c(=O)[nH]1 (stereo in doubt; (-)-21b)
Data returned: 481

Data request: # iterate: COC(c1cc(Cl)c2c(c1Cl)C(=O)N(Cc1c(C)cc(C)[nH]c1=O)CC2)C1CCN(C(C)=O)CC1 (single isomer, unassigned; (-))
Data returned: 498

Data request: And then Cc1cc(C)c(CN2CCc3c(Cl)cc(C(CO)C4CCOC4)c(Cl)c3C2=O)c(=O)[nH]1 (stereo in doubt; (-)-6b) , what is it?
Data returned: 508

Data request: Now give it for COc1cc(C)[nH]c(=O)c1CN1CCc2c(Cl)cc(C(OC)C3CCOC3)c(Cl)c2C1=O (single isomer, unassigned; form 1) too.
Data returned: 521

Now for a further compound.
Data request: Item CCC(O)c1cc(Cl)c2c(c1Cl)C(=O)N(Cc1c(C)cc(C)[nH]c1=O)CC2 (single isomer, unassigned; (+)) has what recorded Kinetic_solubility?
Data returned: 59

// data source = ChEMBL document CHEMBL4024771
